biological target: DRB3*02:02 (Homo sapiens, UniProt P01903+P79483, A212P/D57E/F66Y/L67A/R103Q/R218S/R40L/S89Y/T80R/V86D/Y55F/Y59H); experiment: biochemical
Sequence (P01903 26-254 limits assumed): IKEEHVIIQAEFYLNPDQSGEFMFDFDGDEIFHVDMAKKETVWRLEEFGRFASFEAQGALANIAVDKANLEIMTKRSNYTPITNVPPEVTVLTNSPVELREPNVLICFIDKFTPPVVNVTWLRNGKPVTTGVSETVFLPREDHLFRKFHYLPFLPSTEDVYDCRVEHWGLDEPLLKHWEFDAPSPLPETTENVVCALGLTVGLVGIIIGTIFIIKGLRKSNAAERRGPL
Sequence (P79483 30-266 R40L/Y55F/D57E/Y59H/F66Y/L67A/T80R/V86D/S89Y/R103Q/A212P/R218S limits assumed): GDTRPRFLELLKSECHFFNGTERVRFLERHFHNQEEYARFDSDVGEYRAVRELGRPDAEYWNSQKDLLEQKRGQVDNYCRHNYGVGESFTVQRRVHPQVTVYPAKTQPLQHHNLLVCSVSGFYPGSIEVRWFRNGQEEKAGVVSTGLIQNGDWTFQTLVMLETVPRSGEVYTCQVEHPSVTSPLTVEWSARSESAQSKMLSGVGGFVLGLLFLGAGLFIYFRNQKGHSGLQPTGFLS
Where a SMILES comes first, the peptide text is derived from it.
QUANTITY MEASURED: IC50

molecule="CC[C@H](C)[C@H](NC(=O)[C@H](CCC(N)=O)NC(=O)[C@H](CC(=O)O)NC(=O)[C@@H](N)CC(=O)O)C(=O)NCC(=O)N[C@@H](Cc1ccc(O)cc1)C(=O)N[C@@H](Cc1ccc(O)cc1)C(=O)N[C@@H](CCCNC(=N)N)C(=O)N[C@@H](CCCNC(=N)N)C(=O)N[C@@H](C)C(=O)N[C@H](C(=O)N[C@@H](CCCNC(=N)N)C(=O)N[C@@H](CCCNC(=N)N)C(=O)N[C@H](C(=O)N[C@@H](CCCNC(=N)N)C(=O)O)[C@@H](C)CC)[C@@H](C)O [Ncl_P17] (H-DDQIGYYRRATRRIR-OH)" result_value="1020 nM"
molecule="CC(C)C[C@H](NC(=O)[C@H](CC(N)=O)NC(=O)[C@H](CCCCN)NC(=O)[C@@H](NC(=O)[C@H](CCCNC(=N)N)NC(=O)[C@H](CO)NC(=O)[C@H](Cc1ccc(O)cc1)NC(=O)[C@@H](NC(=O)[C@H](Cc1ccc(O)cc1)NC(=O)[C@H](Cc1ccccc1)NC(=O)[C@H](CO)NC(=O)[C@@H]1CCCN1C(=O)[C@H](CCCCN)NC(=O)[C@@H](NC(=O)[C@@H](N)CC(C)C)C(C)C)C(C)C)C(C)C)C(=O)O [Env_11] (H-LVKPSFYVYSRVKNL-OH)" result_value="160 nM"

---

target: DRB1*07:01 (Homo sapiens, UniProt P01903+P01911, A100R/A102G/A103Q/D57E/D86V/E43K/F76Y/K127E/L162R/M171V/P40G/Q125H/Q99D/R33Q/R42Y/R54Q/S133A/S66F/T210M/V115G/Y107V/Y59L/Y89S); experiment: biochemical
pIC50: −log10 of the molar value. Where a SMILES comes first, the peptide text is derived from it.
QUANTITY MEASURED: pIC50

compound="CC[C@H](C)[C@H](NC(=O)CNC(=O)[C@H](CC(=O)O)NC(=O)[C@H](CCCCN)NC(=O)[C@H](CC(N)=O)NC(=O)[C@H](C)NC(=O)CNC(=O)[C@H](Cc1ccc(O)cc1)NC(=O)[C@@H]1CCCN1C(=O)[C@@H](N)CC(C)C)C(=O)N[C@H](C(=O)N[C@@H](Cc1c[nH]c2ccccc12)C(=O)N[C@H](C(=O)N[C@@H](C)C(=O)N[C@H](C(=O)O)[C@@H](C)O)C(C)C)[C@@H](C)CC [Ncl_25] (H-LPYGANKDGIIWVAT-OH)" result_value=5.83
compound="CC(C)C[C@H](NC(=O)[C@H](C)NC(=O)[C@@H](NC(=O)[C@H](Cc1ccccc1)NC(=O)[C@H](Cc1c[nH]c2ccccc12)NC(=O)[C@@H](N)CO)[C@@H](C)O)C(=O)N[C@H](C(=O)N[C@@H](CCC(N)=O)C(=O)N[C@@H](Cc1c[nH]cn1)C(=O)NCC(=O)N[C@@H](CCCCN)C(=O)N[C@@H](CCC(=O)O)C(=O)N[C@@H](CC(=O)O)C(=O)N[C@@H](CC(C)C)C(=O)N[C@@H](CCCCN)C(=O)O)[C@@H](C)O [Ncl_11] (H-SWFTALTQHGKEDLK-OH)" result_value=6.15
